Hello, the source for this data is ChEMBL document CHEMBL3875201, in case you need it.

# test details: Cytotoxicity against human MT4 cells by MTS cell viability assay
# Assay type: toxicity, cell-based
parameter measured: CC50

Given CCOC(=O)C1C2NC(=O)NC1(C)Oc1ccccc12 (stereo not given) , state its recorded CC50.
> 125 µM

Input CCOC(=O)C1=C(C)NC(=O)NC1c1ccc(N(C)C)cc1 (stereo not given)
> 125 µM

Input CCOC(=O)C1=C(C)NC(=O)NC1
> 125 µM

Input CCOC(=O)C1=C(C)NC(=O)NC1/C=C/c1ccccc1 (stereo not given)
> 125 µM

Input CCOC(=O)C1=C(C)NC(=O)NC1c1ccccc1Cl (stereo not given)
96 µM

Input CCOC(=O)C1=C(C)NC(=O)NC1c1ccc(O)cc1 (stereo not given)
> 125 µM

Input CCOC(=O)C1=C(C)NC(=O)NC1c1cccs1 (stereo not given)
> 125 µM

Input CCCCCCCCCCCC1NC(=O)NC(C)=C1C(=O)OCC (stereo not given)
50 µM

Input CCOC(=O)C1=C(C)NC(=O)NC1CC(C)C (stereo not given)
> 125 µM

Input CCOC(=O)C1=C(C)NC(=O)NC1C (stereo not given)
> 125 µM

----------
# test details: Cytotoxicity against HEL cells assessed as alterations in cell morphology by microscopic analysis
# Type: toxicity, cell-based
# conditions used: human
parameter measured: MCC

Given CCOC(=O)C1=C(C)NC(=O)NC1c1ccc(Br)cc1 (configuration not stated) , state its recorded MCC.
> 100 µM

Input CCOC(=O)C1=C(C)NC(=O)NC1/C=C/c1ccccc1 (configuration not stated)
≥ 100 µM

Input CCCCCCCCCCCC1NC(=O)NC(C)=C1C(=O)OCC (configuration not stated)
100 µM

Input CCOC(=O)C1=C(C)NC(=O)NC1CC(C)C (configuration not stated)
> 100 µM

Input CCOC(=O)C1=C(C)NC(=O)NC1c1ccc(N(C)C)cc1 (configuration not stated)
> 100 µM

Input CCOC(=O)C1C2NC(=O)NC1(C)Oc1ccccc12 (configuration not stated)
> 100 µM

Input CCOC(=O)C1=C(C)NC(=O)NC1c1ccccc1Cl (configuration not stated)
> 100 µM

Input CCOC(=O)C1=C(C)NC(=O)NC1c1cccs1 (configuration not stated)
> 100 µM

Input CCOC(=O)C1=C(C)NC(=O)NC1c1ccc(Cl)cc1 (configuration not stated)
> 100 µM

Input CCOC(=O)C1=C(C)NC(=O)NC1c1ccc(O)cc1 (configuration not stated)
> 100 µM

Input CCOC(=O)C1=C(C)NC(=O)NC1C (configuration not stated)
> 100 µM

Input CCOC(=O)C1=C(C)NC(=O)NC1
> 100 µM

----------
# System: Punta Toro virus
# test details: Antiviral activity against Punta Toro virus infected in African green monkey Vero cells assessed as protection against virus-induced cytopathic effect measured after 3 to 5 days by microscopic analysis
# Type: functional, cell-based
parameter measured: EC50

Given CCOC(=O)C1=C(C)NC(=O)NC1c1ccccc1Cl (stereo unspecified) , state its recorded EC50.
> 100 µM

Input CCOC(=O)C1=C(C)NC(=O)NC1c1ccc(O)cc1 (stereo unspecified)
> 100 µM

Input CCOC(=O)C1=C(C)NC(=O)NC1CC(C)C (stereo unspecified)
> 100 µM

Input CCOC(=O)C1=C(C)NC(=O)NC1c1ccc(N(C)C)cc1 (stereo unspecified)
> 100 µM

Input CCOC(=O)C1=C(C)NC(=O)NC1/C=C/c1ccccc1 (stereo unspecified)
> 100 µM

Input CCCCCCCCCCCC1NC(=O)NC(C)=C1C(=O)OCC (stereo unspecified)
3 µM

----------
Field: MCC. Provide a value for each of the compounds that follow.
# test details: Cytotoxicity against African green monkey Vero cells assessed as alterations in cell morphology by microscopic analysis
# Format: toxicity, cell-based
# conditions used: chlorocebus sabaeus

Given CCCCCCCCCCCC1NC(=O)NC(C)=C1C(=O)OCC (configuration not stated) , state its recorded MCC.
≥ 100 µM

Input CCOC(=O)C1=C(C)NC(=O)NC1c1ccc(N(C)C)cc1 (configuration not stated)
100 µM

Input CCOC(=O)C1=C(C)NC(=O)NC1c1ccc(O)cc1 (configuration not stated)
> 100 µM

Input NC(=O)c1ncn([C@@H]2O[C@H](CO)[C@@H](O)[C@H]2O)n1 [RIBAVIRIN]
> 250 µM

Input CCOC(=O)C1=C(C)NC(=O)NC1C (configuration not stated)
> 100 µM

Input CCOC(=O)C1=C(C)NC(=O)NC1
> 100 µM

Input CCOC(=O)C1C2NC(=O)NC1(C)Oc1ccccc12 (configuration not stated)
> 100 µM

Input CCOC(=O)C1=C(C)NC(=O)NC1c1cccs1 (configuration not stated)
> 100 µM

Input CCOC(=O)C1=C(C)NC(=O)NC1/C=C/c1ccccc1 (configuration not stated)
100 µM

Input CCOC(=O)C1=C(C)NC(=O)NC1CC(C)C (configuration not stated)
> 100 µM

Input CCOC(=O)C1=C(C)NC(=O)NC1c1ccccc1Cl (configuration not stated)
> 100 µM

Input COc1c(C)c2c(c(O)c1C/C=C(\C)CCC(=O)O)C(=O)OC2 [MYCOPHENOLIC ACID]
> 100 µM

----------
# Tested on: Punta Toro virus
# test details: Antiviral activity against Punta Toro virus infected in African green monkey Vero cells assessed as protection against virus-induced cytopathic effect measured after 3 to 5 days by microscopic analysis
# Type: functional, cell-based
Field: EC50. Provide a value for each of the molecules that follow.

Given COc1c(C)c2c(c(O)c1C/C=C(\C)CCC(=O)O)C(=O)OC2 , state its recorded EC50.
20 µM

Input CCOC(=O)C1=C(C)NC(=O)NC1C (stereo unspecified)
> 100 µM

Input CCOC(=O)C1=C(C)NC(=O)NC1c1cccs1 (stereo unspecified)
> 100 µM

Input NC(=O)c1ncn([C@@H]2O[C@H](CO)[C@@H](O)[C@H]2O)n1
50 µM

Input CCOC(=O)C1=C(C)NC(=O)NC1
> 100 µM

Input CCOC(=O)C1C2NC(=O)NC1(C)Oc1ccccc12 (stereo unspecified)
> 100 µM
